Molecular target: TRPV1 receptor (Rattus norvegicus, UniProt O35433)
Sequence (O35433 whole entry): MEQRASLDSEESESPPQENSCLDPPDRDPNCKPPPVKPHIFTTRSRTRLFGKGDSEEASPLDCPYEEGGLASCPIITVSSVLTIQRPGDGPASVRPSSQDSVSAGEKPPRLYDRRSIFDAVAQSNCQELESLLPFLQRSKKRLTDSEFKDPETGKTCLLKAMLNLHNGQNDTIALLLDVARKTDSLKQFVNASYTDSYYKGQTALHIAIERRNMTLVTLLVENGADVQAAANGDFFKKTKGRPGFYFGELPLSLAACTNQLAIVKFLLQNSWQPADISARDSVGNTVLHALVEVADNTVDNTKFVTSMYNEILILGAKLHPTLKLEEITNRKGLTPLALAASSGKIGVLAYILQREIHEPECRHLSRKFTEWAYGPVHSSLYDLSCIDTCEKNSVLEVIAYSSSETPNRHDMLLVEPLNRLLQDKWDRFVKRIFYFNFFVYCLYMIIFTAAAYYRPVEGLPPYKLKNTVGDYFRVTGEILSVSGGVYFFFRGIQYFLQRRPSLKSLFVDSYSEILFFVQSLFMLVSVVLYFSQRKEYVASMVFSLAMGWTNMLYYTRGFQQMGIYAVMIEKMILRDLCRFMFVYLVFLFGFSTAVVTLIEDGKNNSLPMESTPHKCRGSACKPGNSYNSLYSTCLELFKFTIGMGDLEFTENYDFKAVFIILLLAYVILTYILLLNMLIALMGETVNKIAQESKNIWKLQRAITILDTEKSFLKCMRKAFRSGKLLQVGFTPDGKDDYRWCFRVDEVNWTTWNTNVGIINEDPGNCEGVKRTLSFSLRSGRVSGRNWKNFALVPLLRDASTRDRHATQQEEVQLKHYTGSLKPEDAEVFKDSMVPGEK
Assay: TRPV1 modulation in DRG neurones: CGRP release in absence and presence of capsaicin (Assay 2)
Assay type: cell-based
Set-up: The culture used for this experiment contained sensory neurones, Schwann cells and fibroblasts; endogenous in cells; host or cells: primary rat DRG sensory neurone culture (with Schwann cells and fibroblasts)
Conditions: 20 min; 3 μM with capsaicin 1 μM; −ve: inhibition, +ve: potentiation of capsaicin response; read-out: Effect of test compounds on capsaicin (1 μM)-induced CGRP release (%)
We begin with a simple list: items and their reported inhibition at 3 µM.

| Compound | Reading unit | inhibition at 3 µM |
| --- | --- | --- |
| COc1cc(CCC(=O)CC(=O)c2cccc3ccccc23)ccc1O [Compound 27] | % | 46 |
| COc1cc(CCC(=O)C(C)(C)C(=O)c2ccc(C)cc2)ccc1O [Compound 81] | % | 25 |
| COc1cc(CCC(=O)CC(=O)C(C)(C)C)ccc1O [Compound 2] | % | -46 |
| COc1cc(CCC(=O)C(C)(C)C(=O)C(C)(C)C)ccc1O [Compound 71] | % | 26 |
| COc1cc(CCC(=O)CC(=O)c2ccc(F)cc2)ccc1O [Compound 20] | % | 29 |
| COc1cc(CCC(=O)CC(=O)Cc2cccc3ccccc23)ccc1O [Compound 29] | % | 46 |
| COc1cc(CCC(=O)CC(=O)c2ccccc2-c2ccccc2)ccc1O [Compound 19] | % | -29 |
| COc1cc(CCC(=O)C(C)C(=O)C2(C)CC2)ccc1O (stereo not drawn) [Compound 7] | % | 19 |
| COc1cc(CCC(=O)CC(=O)c2ccc3ccccc3c2)ccc1O [Compound 26] | % | 47 |

---

Tested on: IL-1α-induced PGE2 release
Assay: IL-1α-induced PGE2 release in human diploid lung fibroblasts (WI-38) (Assay 5)
Assay type: cell-based
Details: Homo sapiens; 3 μM; WI-38 cells, IL-1α 1 nM, overnight
We begin with a simple list: items and their reported inhibition at 3 µM.
Readout kind: inhibition at 3 µM (%)

| Molecule | Measurement target | Result |
| --- | --- | --- |
| COc1cc(CCC(=O)CC(=O)C2(C)CC2)ccc1O | IL-1α-induced PGE2 release | 88 |
| COc1cc(CCC(=O)CC(=O)c2ccc(-c3ccccc3)cc2)ccc1O | IL-1α-induced PGE2 release | 86 |
| COc1cc(CCC(=O)C(C)C(=O)C(C)(C)C)ccc1O (centres unmarked) | IL-1α-induced PGE2 release | 49 |
| COc1cc(CCC(=O)C(C)C(=O)C2(C)CC2)ccc1O (centres unmarked) | IL-1α-induced PGE2 release | 47 |
| COc1cc(CCC(=O)C(C)(C)C(=O)c2ccc(C)cc2)ccc1O | IL-1α-induced PGE2 release | 62 |

---

We begin with a simple list: items and their reported inhibition at 3 µM.
System: IL-1α-induced PGE2 release
Test: IL-1α-induced PGE2 release in human diploid lung fibroblasts (WI-38) (Assay 5)
Format: cell-based
Conditions: Homo sapiens; 3 μM; WI-38 cells, IL-1α 1 nM, overnight

| Compound | Reading unit | inhibition at 3 µM |
| --- | --- | --- |
| COc1cc(CCC(=O)C(C)C(=O)c2ccc(O)c(OC)c2)ccc1O (stereo not drawn) | % | 32 |
| COc1cc(CCC(=O)CC(=O)c2ccc(C#N)cc2)ccc1O | % | 78 |
| COc1cc(CCC(=O)C(C)(C)C(=O)C2(C)CC2)ccc1O | % | 42 |
| COc1cc(CCC(=O)CC(=O)c2ccc3ccccc3c2)ccc1O | % | 81 |
| COc1cc(CCC(=O)CC(=O)c2cccc3ccccc23)ccc1O | % | 92 |
| COc1cc(CCC(=O)CC(=O)c2ccc(Cl)cc2C)ccc1O | % | 99 |
| COc1cc(CCC(=O)CC(=O)c2ccccc2C)ccc1O | % | 101 |
| COc1cc(CCC(=O)C(Cc2ccccc2)C(=O)c2ccccc2)ccc1O (stereo not drawn) | % | 73 |
| COc1cc(CCC(=O)CC(=O)C(C)(C)c2ccccc2)ccc1O | % | 83 |
